These measurements were taken from patent US20100016352A1.

Test system: MCF7 cells
Assay: Cell apoptosis assay in ER-positive breast cancer MCF7 cells (cell number after treatment)
Type: cell-based, human
Details: MCF-7, tested compound concentration 25 μM, 10 days
OBSERVED_PROPERTY: Cell Number (×10^4)

compound=COc1ccc(-c2oc3c(CCC(C)(C)O)c(O)cc(O)c3c(=O)c2OC)cc1OC observed_property="Cell Number (×10^4)" endpoint_result="3.87 ×10^4"
compound=CC(C)=CCc1c(O)ccc2c(=O)cc(-c3ccncc3)oc12 observed_property="Cell Number (×10^4)" endpoint_result="1.4 ×10^4"
compound=CC(C)=CCc1c(O)ccc2c(=O)cc(-c3cccnc3)oc12 observed_property="Cell Number (×10^4)" endpoint_result="2.6 ×10^4"
compound=CC(C)=CCc1c(O)cc(O)c2c(=O)cc(-c3ccc(Cl)cc3)oc12 observed_property="Cell Number (×10^4)" endpoint_result="0.6 ×10^4"
compound=COc1c(-c2ccc(Cl)cc2)oc2c(CC=C(C)C)c(O)cc(O)c2c1=O observed_property="Cell Number (×10^4)" endpoint_result="0 ×10^4"
compound=COc1ccc(-c2oc3c(CCC(C)(C)N)c(O)cc(O)c3c(=O)c2O)cc1 observed_property="Cell Number (×10^4)" endpoint_result="0.25 ×10^4"
compound=CC(C)=CCc1c(O)ccc2c(=O)cc(-c3ccc(F)cc3)oc12 observed_property="Cell Number (×10^4)" endpoint_result="7.5 ×10^4"
compound=CC(C)=CCc1c(O)ccc2c(=O)cc(-c3ccc(C(F)(F)F)cc3)oc12 observed_property="Cell Number (×10^4)" endpoint_result="12.3 ×10^4"

### Prompt Param readout = Cell Number (×10^4); param system = MCF7 cells; param query = COc1ccc(-c2cc(=O)c3c(O)cc(O)c(CC=C(C)C)c3o2)cc1Cl ; response: value
### Response 0 ×10^4

### Prompt Query CC(C)=CCc1c(O)ccc2c(=O)cc(-c3ccc(C)cc3)oc12 next
### Response 1.5 ×10^4

###

System: MCF7 cells
Experiment: Cell apoptosis assay in ER-positive breast cancer MCF7 cells (cell number after treatment)
Assay type: cell-based, human
Settings: MCF-7, tested compound concentration 1 μM, 10 days
OBSERVED_PROPERTY: Cell Number (×10^4)

Examples with answers:
compound=CC(C)=CCc1c(O)ccc2c(=O)cc(-c3ccncc3)oc12 observed_property="Cell Number (×10^4)" endpoint_result="25.6 ×10^4"
compound=COc1ccc(-c2oc3c(CCC(C)(C)O)c(O)cc(O)c3c(=O)c2OC)cc1OC observed_property="Cell Number (×10^4)" endpoint_result="18.35 ×10^4"
compound=COc1ccc(-c2cc(=O)c3c(O)cc(O)c(CC=C(C)C)c3o2)cc1Cl observed_property="Cell Number (×10^4)" endpoint_result="59.4 ×10^4"
compound=CC(C)=CCc1c(O)ccc2c(=O)cc(-c3cccnc3)oc12 observed_property="Cell Number (×10^4)" endpoint_result="27.8 ×10^4"
compound=CC(C)=CCc1c(O)ccc2c(=O)cc(-c3ccc(C)cc3)oc12 observed_property="Cell Number (×10^4)" endpoint_result="21.1 ×10^4"

--- query ---
### Prompt I am curious: what Cell Number (×10^4) value has been reported for CC(C)=CCc1c(O)ccc2c(=O)cc(-c3ccc(F)cc3)oc12 ?
### Response 24.0 ×10^4

###

List of Cell Number (×10^4) values.
Tested on: MCF7 cells
Assay: Cell apoptosis assay in ER-positive breast cancer MCF7 cells (cell number after treatment)
Format: cell-based, human
Conditions: MCF-7, tested compound concentration 1 μM, 10 days

compound=CC(C)=CCc1c(O)cc(O)c2c(=O)cc(-c3ccc(Cl)cc3)oc12 endpoint_result="39.0 ×10^4"
compound=COc1ccc(-c2oc3c(CCC(C)(C)N)c(O)cc(O)c3c(=O)c2O)cc1 endpoint_result="28.75 ×10^4"
compound=COc1c(-c2ccc(Cl)cc2)oc2c(CC=C(C)C)c(O)cc(O)c2c1=O endpoint_result="30.05 ×10^4"

--- query ---
### Prompt I am curious: what Cell Number (×10^4) value has been reported for CC(C)=CCc1c(O)ccc2c(=O)cc(-c3ccc(C(F)(F)F)cc3)oc12 ?
### Response 27.9 ×10^4
